molecular target: HLA-A*0301 (human); experiment: competition with 125I-labeled standard peptide for purified HLA, gel filtration
Reported relative binding ratio (IC50 of standard peptide / IC50 of test peptide) is given for each of the following binders.
Parameter measured: relative binding ratio (IC50 of standard peptide / IC50 of test peptide)

• NINAGTDSR (modifications not checked) [HPV16 E1 peptide … (position 567, 9 amino acids)] = 0.0005
• SLFGMSLMK (modifications not checked) [HPV16 E1 peptide … (position 484, 9 amino acids)] = 0.72
• TAQEAKQHR (modifications not checked) [HPV16 E1 peptide … (position 72, 9 amino acids)] = 0.0005
• SMSQWIKYR (modifications not checked) [HPV16 E1 peptide … (position 421, 9 amino acids)] = 0.69
• LVSMDVKHR (modifications not checked) [HPV16 E1 peptide … (position 544, 9 amino acids)] = 0.0005
• LVRPFKSNK (modifications not checked) [HPV16 E1 peptide … (position 222, 9 amino acids)] = 0.07
• NSNASAFLK (modifications not checked) [HPV16 E1 peptide … (position 386, 9 amino acids)] = 0.0005
